Data origin, for the record: a melting point compilation (Tetko et al.; mined from patent text by program, amines drawn as free bases though some values may be those of a salt)

OBSERVABLE: melting point

COC1=C(OC)C(=O)C(CCCCCCCCCC(=O)N[C@H](CCC(=O)OCc2ccccc2)C(N)=O)=C(C)C1=O : 83 to 85 °C
CC(C)C[C@H](NC(=O)OC(C)(C)C)[C@@H](O)c1ncnn1C : 144 to 145 °C
NCc1cc(=O)[nH]c(=O)[nH]1 : 295 to 297 °C
CC1(C)N=C(c2ccccc2Cl)c2cc(N)ccc2N(CCO)C1=O : 175 to 176 °C
Oc1cccc(CN2CCCC2)c1 : 100 to 102 °C

Kindly indicate its recorded melting point. Item: COC(=O)C1=C(CF)NC(C)=C(C(=O)OC(C)C)C1c1cccc([N+](=O)[O-])c1Cl (stereo unspecified)
156 to 157 °C

Return melting point for the following compound: CN1CCC23CC(=O)CCC2C1Cc1ccccc13 (stereo unspecified)
164 to 166 °C

Provide melting point value for the following compound: CC(C)c1cccc(C(C)C)c1NC(=O)CN1CC2(CCCCC2)N(c2ccccc2)C1=O
107 to 109 °C

Annotate the compound Cc1ccc(-n2c(-c3ccc(S(C)(=O)=O)cc3)nc(O)c(C#N)c2=O)cc1C with its measured melting point.
> 285 °C

Give melting point for COC(=O)C1C(c2ccccc2)C2(C(=O)OC)C(C)=NC1(C)CC2C[Si](C)(C)C (stereo unspecified)
152 to 155 °C

Complete the entry with melting point for CS(=O)(=O)c1ccc(C(Cc2ccc(F)cc2)C(=O)Nc2nc3ccc(CO)cc3o2)cc1 (stereo unspecified)
128 to 130 °C

Name the recorded melting point of the item CCCCCCCCCCCCCCCCCCSCCCCCC(N)=O in your answer.
105 °C

Specify melting point for O=c1c2c(c3cccnc3n1-c1cccc(Cl)c1)OC(CO)C2 (stereo unspecified) and stop.
243 to 245 °C

// Input: COc1ccc(-c2ccc(Br)cc2[N+](=O)[O-])cc1 . Output its melting point only.
130 to 131 °C

Please give the documented melting point of O=C1C(Cl)=CC(=NS(=O)(=O)c2cccs2)c2ccccc21
167 to 169 °C

Specify measured melting point for O=S(=O)(Nc1ccc2c(OCc3nc4ccccc4s3)cccc2c1)C(F)(F)F .
190 to 192 °C

====

OBSERVABLE: melting point

Here are 8 compounds together with their reported answers.
BrCCCCCCCOc1ccc2c(c1)OCO2 : 45 to 47 °C
NS(=O)(=O)Oc1cccc(Cl)c1 : 82 to 83 °C
Cc1cn(-c2ccc(NC(=O)c3ccc(Cl)c(C#Cc4ccc(NC(C)C)nn4)c3)cc2C(F)(F)F)cn1 : 133 to 135 °C
Nc1cc(OCc2ccccc2)ccc1NC(=O)c1ccc(C23CC4CC(CC(C4)C2)C3)c(OCc2ccccc2)c1 : 178 °C
CC(C)(C)OC(=O)Nc1cc(-c2nnc(CCc3cccc(F)c3)o2)ccn1 : 256 to 257 °C
O=C(O)c1ccc(-c2nc(-c3ccc(Oc4ccccc4)cc3)no2)cc1 : 278 to 279 °C
Cc1ccccc1-c1ccc(C(=O)N2Cc3ccc(C(=O)NCCc4ccc(Cl)cc4)n3Cc3ccccc32)cc1C : 169 to 171 °C
O=C1CCN(c2ccc(C(=O)O)cc2)CCN1 : 285 to 286 °C

Here's the next entry for you.
Identify melting point associated with the compound O=C(O)c1ccc(COc2ccc3cc(-c4ccc(-c5ccccc5)n4-c4ccccc4)ccc3c2)cc1
309 to 310 °C

====

OBSERVABLE: melting point

Example molecules with recorded melting point:
O=C(CCC1CCCCC1)NC1N=C(c2ccccc2)c2ccccc2N2CCN=C12 (stereo not given) : 202 to 208 °C
O=C(c1ccc(O)c(Cl)c1)c1ccc(Cl)cc1Cl : 145 °C
CCOC(=O)c1ccc(NCCCCCc2ccccc2)cc1 : 63 to 64 °C

Query melting point for COc1ccc2[nH]c(COC(C)=O)c(C=O)c2c1[N+](=O)[O-]
201 to 203 °C

For the molecule Cn1nc(-c2cc(C=O)c(Cl)cc2Cl)c(Cl)c1OC(F)F , report melting point.
138 °C

In one line, give reported melting point of the entry C=CCONC(CCC)=C1C(=O)CC(CCC2OCCCO2)CC1=O (stereo not given) .
50 to 52 °C

Find the measured melting point of CCOC(=O)CN1CCN(C2=Nc3ccccc3Oc3ccc(Cl)cc32)CC1 and report it.
123 to 124 °C

Write down melting point measured for item O=C(Nc1ccc(S(=O)(=O)c2ccccn2)cc1)C(O)(C(F)(F)F)C(F)(F)F
199 to 200 °C

Kindly indicate its recorded melting point. Item: O=C1Cc2c(Cl)cccc2Sc2ccc(C(F)(F)F)cc21
105 to 108 °C

Report measured melting point; entry is Oc1ccc(NCC2Cc3ccccc3C2)cc1
106 to 109 °C

====

The following molecules are shown together with reported melting point values.

CN(CCN1C(=O)c2ccccc2C1=O)C(c1ccccc1)c1ccccc1 : 130 to 131 °C
O=C(NC(Cc1ccc([N+](=O)[O-])cc1)C(=O)C(F)(F)F)c1ccccc1 (stereo not given) : 175 °C
COC(=O)CN1CCC(C(=O)Oc2ccc([N+](=O)[O-])cc2)CC1 : 109 to 111 °C
COc1ccc2c(c1)C(N1CCN(C)CC1)c1ccccc1C=C2 (stereo not given) : 118 °C
COCCc1nc2c(N)nc3ccccc3c2n1CCCCNC(=O)c1cnc2ccccc2c1 : 114 to 116 °C

# return recorded melting point for entry CC(CO)c1ccc2nc(-c3ccccc3)oc2c1 (stereo not given)
98 °C

====

Listing of recorded melting point by entry.

Completed entries (count: 5):
Cc1nc2cnccc2n1-c1ccc(C2=Nc3ccccc3N(C)C(=O)C2)cc1 : 147 °C
CC1(C)OC(=O)C(c2ccc3sccc3c2)O1 (single isomer, unassigned; (-)) : 116 to 117 °C
N#CC(c1ccccc1Cl)N1CCc2sccc2C1 (stereo not given) : 121 to 124 °C
CC(C)NC(=O)C(C)(C)C : 106 to 108 °C
COC(=O)c1c(OC(C)=O)cc(CBr)cc1OC(C)=O : 93 to 95 °C

Provide one value: measured melting point of [N-]=[N+]=Nc1cc(=O)n(-c2ccccc2)nc1C1=NCCN1
238 to 240 °C

In one line, give reported melting point of the entry O=C(OCCC1CC1)c1ncn2c1[C@@H]1CCCN1C(=O)c1c(Cl)cccc1-2 .
163 to 164 °C

Quote melting point reported for COC(=O)Nc1ccc(C(=O)O)cc1 please.
195 to 196 °C

Supply measured melting point of CC1=CC(C)(C)Cc2c1nc(C(C)C)c(CO)c2-c1ccc(F)cc1 in your reply.
112 to 114 °C

Output measured melting point for this item: COc1ccc(C=C2c3ccccc3C(=NOCC(=O)NCC(C)(C)SN=O)c3ccccc32)cc1O
143 to 145 °C

====

Measured melting point of individual entries

Some solved cases for reference:
COc1cc(OC)c2c(=O)cc(-c3n[nH]c4ccccc34)oc2c1 : 253 to 255 °C
CC1(C)Oc2ccc(C(=O)CCC(=O)O)cc2NC1=O : 226 to 228 °C
O=C(COc1ccc(OCc2ccccc2)cc1)NCCCn1ccnc1 : 112 to 113 °C

# return recorded melting point for input CC(=O)SCCC(=O)N1CCN(C)CC1C(=O)O (stereo not given)
92 to 98 °C

Recall and state the measured melting point for CN(C(=O)OC(C)(C)C)[C@H](Cc1ccc2ccccc2c1)C(=O)N1CCN(S(C)(=O)=O)C[C@H]1Cc1ccccc1 .
76 to 80 °C

====

Below: a set of entries, each annotated with reported melting point.

CCOC(=O)c1cnn(-c2c(Cl)cc(C(F)(F)F)cc2Cl)c1Br : 80 to 82 °C
Cc1noc(C2C(=O)Nc3cc(Cl)ccc3C2=O)n1 (stereo not given) : > 320 °C
CC(CO)CCCC(C)C1CCC2C3CC=C4CCCC(O)C4(C)C3CCC12C (stereo not given) : 158 to 160 °C
O=c1[nH]c2ccc(C3CCC(NCCS(=O)c4ccccc4)CC3)cc2o1 (stereo not given) : 107 to 110 °C

Proceeding to the next compound to report its melting point.
Indicate the recorded melting point value for this compound: CNc1nc(Cl)c(SC)c(N2CCN(c3ccccc3)CC2)n1
163 to 164 °C

====

OBSERVABLE: melting point

C=CC(=O)OCCS(=O)(=O)c1ccc(O)cc1 : 91 to 92 °C
CCCCNC(=O)N1N=C(c2ccc(N)cc2)c2cc(Cl)ccc2CC1C (stereo not given) : 89 to 91 °C
CCCCn1ccc(-c2ccc(Oc3cc(C)nc(C)c3)c(F)c2)c(C#N)c1=O : 205 °C
Cc1nc2cc(NC(=O)c3cc4cccnc4n3Cc3ccncc3)ccc2n1C : 236 to 246 °C
COc1ccc(C2=C(CC(C)N)C(=O)NCCC2)cc1 (stereo not given) : 131 to 133 °C
Cc1ccc(C=C2SC(=S)N(CC(=O)O)C2=O)cc1 : 245 to 250 °C
CC(C)(C)c1cc(CN2CCN(c3ccc([N+](=O)[O-])cc3)CC2)cc(C(C)(C)C)c1O : 178 °C
O=Cc1cc(-c2ccc(Cl)cc2F)ccc1OC(F)(F)F : 41 to 42 °C

Tell me measured melting point for COC(=O)c1cn2c3c(c(N4CCCC4)c(F)cc3c1=O)CCN2C please.
203 to 206 °C
